// reported LC50 for each item listed
# experiment.notes: Toxicity against brine shrimp larvae
# Format: organism-based
# measurement.setup: artemia, in vivo
value.type: LC50

1) CCCCCCCCCC[C@@H](O)[C@H]1CC[C@@H]([C@H]2CC[C@H]([C@H](O)CCCCCCCCCC[C@@H](O)CC3=C[C@H](C)OC3=O)O2)O1 [TRILOBACIN]: 0.0087 µg/mL
2) COc1cc([C@H]2OC[C@H]3[C@@H]2CO[C@@H]3c2cc(OC)c(O)c(OC)c2)cc(OC)c1O [SYRINGARESINOL]: 13.6 µg/mL
3) COc1cc(/C=C/C(=O)NCCc2ccc(O)cc2)ccc1O [N-TRANS-FERULOYL TYRAMINE]: 6.7 µg/mL
4) O=C(/C=C/c1ccc(O)cc1)NCCc1ccc(O)cc1 [N-P-COUMAROYL TYRAMINE]: 6.7 µg/mL

----------
# Test system: MCF7
# experiment.notes: Cytotoxicity against human MCF7 cells after 7 days
# Format: functional
# measurement.setup: MCF7, 168 h, read-out: ED50 (the source's name)
value.type: EC50 (µg/mL)

1) COc1cc([C@H]2OC[C@H]3[C@@H]2CO[C@@H]3c2cc(OC)c(O)c(OC)c2)cc(OC)c1O: 3.69
2) O=C(/C=C/c1ccc(O)cc1)NCCc1ccc(O)cc1: 0.716
3) CCCCCCCCCC[C@@H](O)[C@H]1CC[C@@H]([C@H]2CC[C@H]([C@H](O)CCCCCCCCCC[C@@H](O)CC3=C[C@H](C)OC3=O)O2)O1: 0.329
4) COc1cc(/C=C/C(=O)NCCc2ccc(O)cc2)ccc1O [N-TRANS-FERULOYL TYRAMINE]: 4.76
